- test system: Serine/threonine-protein kinase PAK 2 (Homo sapiens) (UniProt Q13177);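 further: reported values are mean inhibition of PAK2, averaged over measurements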
- Sequence (Q13177 whole entry): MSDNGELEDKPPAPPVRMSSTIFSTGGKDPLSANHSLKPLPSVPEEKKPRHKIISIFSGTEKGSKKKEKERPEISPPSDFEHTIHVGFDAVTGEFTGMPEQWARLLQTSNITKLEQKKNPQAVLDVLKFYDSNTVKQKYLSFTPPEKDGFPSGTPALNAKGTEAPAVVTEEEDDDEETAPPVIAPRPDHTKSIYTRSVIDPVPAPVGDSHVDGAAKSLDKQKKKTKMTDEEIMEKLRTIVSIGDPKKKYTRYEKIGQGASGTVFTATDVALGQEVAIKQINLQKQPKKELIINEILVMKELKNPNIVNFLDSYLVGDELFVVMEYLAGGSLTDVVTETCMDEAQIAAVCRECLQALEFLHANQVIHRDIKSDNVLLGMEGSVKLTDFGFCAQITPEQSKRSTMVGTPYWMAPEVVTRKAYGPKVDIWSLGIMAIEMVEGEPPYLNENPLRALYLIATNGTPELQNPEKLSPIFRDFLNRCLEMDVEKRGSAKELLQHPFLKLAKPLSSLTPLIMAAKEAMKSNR
- conditions: at 1 µM
Would you mind telling me the reported inhibition of each entry?
Answers are plain numbers, in %.

NC(=O)Cc1ccccc1Oc1nccc(-c2c(-c3ccc(F)cc3)ncn2C2CCNCC2)n1
1.36
O=C1Nc2ccc(I)cc2C1=Cc1cc(Br)c(O)c(Br)c1
1.49
C/C(Nc1ccc(S(N)(=O)=O)cc1)=C1/C(=O)Nc2ccccc21
-1.06

Please look at the items below and tell me inhibition for each one, in order.
1. CCS(=O)(=O)c1ccc(OC)c(Nc2ncc(-c3ccccc3Cl)o2)c1
2. C[C@@H](Oc1cc(-n2cnc3ccc(OC4CCN(C)CC4)cc32)sc1C(N)=O)c1ccccc1Cl
3. Nc1nccc(-c2c(-c3ccc(F)cc3)ncn2C2CCC(O)CC2)n1 (stereo not given)
4. Fc1ccc(-c2ncn(C3CCNCC3)c2-c2ccnc(Oc3ccc(Oc4ccccc4)cc3)n2)cc1
5. FC(F)(F)c1cccc(Nc2nccc(-c3cnn4nc(-c5ccccc5)ccc34)n2)c1
6. Cc1nnc(-c2ccc(C)c(-c3ccc(C(=O)NCc4ccc(Cl)cc4)cc3)c2)o1

Key:
1. 0.49
2. 2.5
3. -0.18
4. 3.52
5. 0.77
6. 1.24

Exercise: Need inhibition, item Fc1ccc(-c2ncn(C3CCNCC3)c2-c2ccnc(Oc3ccc4c(c3)OCO4)n2)cc1
Key: 2.56

---

- test system: Serine/threonine-protein kinase Sgk3 (Homo sapiens);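 further: each value is a mean of replicate inhibition readings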
- Sequence (whole entry): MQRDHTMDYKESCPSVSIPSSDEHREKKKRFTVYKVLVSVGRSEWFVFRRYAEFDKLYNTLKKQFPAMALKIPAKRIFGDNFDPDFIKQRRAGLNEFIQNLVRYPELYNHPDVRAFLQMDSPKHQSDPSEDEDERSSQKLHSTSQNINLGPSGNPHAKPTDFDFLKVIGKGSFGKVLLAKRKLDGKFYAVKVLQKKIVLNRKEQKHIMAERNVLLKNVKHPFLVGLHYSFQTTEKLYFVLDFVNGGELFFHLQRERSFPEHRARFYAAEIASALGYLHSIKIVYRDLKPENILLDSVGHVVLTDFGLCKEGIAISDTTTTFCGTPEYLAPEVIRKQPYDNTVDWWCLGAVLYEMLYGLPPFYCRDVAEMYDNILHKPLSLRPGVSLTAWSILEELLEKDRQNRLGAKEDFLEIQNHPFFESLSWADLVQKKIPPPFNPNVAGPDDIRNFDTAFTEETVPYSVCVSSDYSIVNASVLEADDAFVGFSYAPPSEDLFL
- conditions: at 1 µM
Would you mind telling me the reported inhibition of each entry?

O=C(Nc1n[nH]c2cc(-c3ccccc3)ccc12)C1CC1
3.95%

Please look at the items below and tell me inhibition for each one, in order.
1. O=C(Nc1n[nH]c2nc(-c3ccc(O)cc3)c(Br)cc12)C1CC1
2. O=C(Nc1n[nH]c2cc(-c3cc(F)ccc3F)ccc12)C1CC1
3. CS(=O)(=O)CCNCc1ccc(-c2ccc3ncnc(Nc4ccc(OCc5ccccc5)c(Br)c4)c3c2)o1

Key:
1: 16.7%; 2: 0.16%; 3: 3.35%

---

Would you mind telling me the reported inhibition of each entry?
- test system: Tyrosine-protein kinase JAK1 (Homo sapiens);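 further: each value is a mean inhibition of JAK1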
- conditions: at 1 µM
Numbers only, in %.

Reference set, count: 4
FC(F)(F)c1cccc(Nc2nccc(-c3cnn4nc(-c5ccccc5)ccc34)n2)c1
0.5
Fc1ccc(-c2ncn(CCCN3CCOCC3)c2-c2ccncc2)cc1
-1.2
COc1ccc(C2=C(N3CCc4ccccc43)C(=O)NC2=O)cc1
7.64
CN1CCN(CCCNc2nc3ccc(Oc4ccc(NC(=O)Nc5cc(C(F)(F)F)ccc5F)cc4)cc3[nH]2)CC1
1.78

Please look at the items below and tell me inhibition for each one, in order.
1. C[C@@H](Oc1cc(-n2cnc3ccc(OCC4CCN(C)CC4)cc32)sc1C(N)=O)c1ccccc1Cl
2. COc1ccc2cc(-c3c(-c4ccncc4)nc(-c4ccc(S(C)(=O)=O)cc4C)n3C)ccc2c1
3. CS(=O)(=O)CCNCc1cc(-c2cc3c(Nc4ccc(OCc5cccc(F)c5)c(Cl)c4)ncnc3s2)cs1
4. COc1cc(Nc2ncc(-c3ccccc3)o2)cc(OC)c1OC

Key:
[6.05, 11.1, 3.76, -0.54]
